The following are reported pKi results, target or system Peptidyl-prolyl cis-trans isomerase FKBP1A (Homo sapiens).
pKi: −log10 of the molar value.
experimental-readout: pKi

Worked examples follow.
CCOC(=O)C1CCCCN1C(=O)C(=O)C(C)(C)CC (stereo not drawn) :: 5.89
O=C(OCCCc1cccnc1)C1CCCN1C(=O)NC1CCCCC1 (stereo not drawn) :: 5.83
COc1ccc(CCCCOC(=O)C2CCCCN2C(=O)C(=O)C(C)(C)C)cc1 (stereo not drawn) :: 7.62
CCC(C)(C)C(=O)C(=O)N1CCCC1C(=O)OC/C=C/c1cc(OC)ccc1OC (stereo not drawn) :: 6.35
CCC(C)(C)NC(=O)N1CCCC1C(=O)OCCCc1cccnc1 (stereo not drawn) :: 6.13

I: O=C(OCCCc1cccnc1)C1CCCN1S(=O)(=O)Cc1ccccc1 (stereo not drawn)
II: CCC(C)(C)C(=O)C(=O)N1CCCCC1C(=O)OCCCc1cccnc1 (stereo not drawn)
III: CCC(C)(C)C(=O)C(=O)N1CCCCC1C(=O)OCCCc1cc(OC)ccc1OC (stereo not drawn)
Request: Parameters: sort_field (pKi), sort_dir (desc). Order the labels as requested and list them.
Result: III, I, II

* * *

Species on record: Gallus gallus
assay-protocol: In Vitro neurotrophic effect was measured in cultured chick DRG sensory neurons.
Assay type: functional
condition-notes: read-out: ED50 (the source's name)
experimental-readout: EC50 (nM)

CCC(C)(C)C(=O)C(=O)N1CCCCC1C(=O)OCCCc1cccnc1 (stereo unspecified) :: 8.5
COc1ccc(CCCCOC(=O)C2CCCCN2C(=O)C(=O)C2CCCCC2)cc1 (stereo unspecified) :: 6
CC(C)(C)C(=O)C(=O)N1CCCCC1C(=O)OC1C2CC3CC(C2)CC1C3 (stereo unspecified) :: 0.11
CCC(C)(C)C(=O)C(=O)N1CCCCC1C(=O)O[C@H](CCc1ccccc1)c1ccccc1 (stereo partly specified) :: 0.3
CCC(OC(=O)C1CCCCN1C(=O)C(=O)C(C)(C)CC)C(CCc1ccccc1)c1ccc(OC)cc1 (stereo unspecified) :: 0.17
O=C(OCCCc1cccnc1)C1CCCN1C(=S)NC1C2CC3CC(C2)CC1C3 (stereo unspecified) :: 0.14

I: COc1cc(C(=O)C(=O)N2CCCCC2C(=O)OCCCc2c[nH]c3ccccc23)cc(OC)c1OC (stereo unspecified)
II: O=C(C(=O)N1CCCC1C(=O)OCCCc1cccnc1)C1CCCCC1 (stereo unspecified)
III: COc1ccc(CCCCOC(=O)C2CCCCN2C(=O)C(=O)c2cc(OC)c(OC)c(OC)c2)cc1 (stereo unspecified)
Request: Sort the compounds on EC50; start with the lowest figure. // format: requested-order list of labels
Result: III, I, II
(III: 0.03 nM, I: 0.06 nM, II: 2 nM)

1: O=C(OCCCc1cccnc1)C1CCCN1C(=S)NC1CCCCC1 (stereo unspecified)
2: CCC(C)(C)C(=O)C(=O)N1CCCC1C(=O)OCCCc1ccccn1 (stereo unspecified)
Request: Lower EC50: 1 or 2 ? # reply format: chosen label
Result: 2

P: CCC(C)(C)C(=O)C(=O)N1CCCC1C(=O)OCCCC1CCCCC1 (stereo unspecified)
Q: O=C(C(=O)N1CCCCC1C(=O)OCCCc1ccccc1)C1CCCCC1 (stereo unspecified)
R: CO[C@H]1C[C@@H]2CC[C@@H](C)[C@@](O)(O2)C(=O)C(=O)N2CCCC[C@H]2C(=O)O[C@H]([C@H](C)C[C@@H]2CC[C@@H](O)[C@H](OC)C2)CC(=O)[C@H](C)/C=C(\C)[C@@H](O)[C@@H](OC)C(=O)[C@H](C)C[C@H](C)/C=C/C=C/C=C/1C
S: CCC(C)(C)C(=O)C(=O)N1CCCCC1C(=O)OCCCc1cc(OC)ccc1OC (stereo unspecified)
T: CCC(C)(C)C(=O)C(=O)N1CCCC1C(=O)OCCCc1ccc2c(c1)OCO2 (stereo unspecified)
Request: Arrange items by their EC50 values in increasing order. Put the labels in the order asked and list them.
Result: P, R, Q, S, T

A: Cc1ccc(S(=O)(=O)N2CCCCC2C(=O)OC(CCCc2ccccc2)CCCc2ccccc2)cc1 (stereo unspecified)
B: CC(C)(C)C(=O)C(=O)N1CCCCC1C(=O)OCCCC1CCCCC1 (stereo unspecified)
Request: Between item A and item B , which reported EC50 is smaller? Answer format: the label of the selected item.
Result: B
(B: 0.29 nM, A: 1 nM)

A: CCC(C)(C)C(=O)C(=O)N1CCCCC1C(=O)OCCCC1CCCCC1 (stereo unspecified)
B: O=C(OCCCCc1ccccc1)C1CCCCN1S(=O)(=O)Cc1ccccc1 (stereo unspecified)
Request: Could you tell me which of A and B has the lower EC50 reading? Field: selected label. Fill in the label of the entry you choose.
Result: B

a: O=C(C(=O)N1CCCCC1C(=O)OCCCC1CCCCC1)C1CCCCC1 (stereo unspecified)
b: CC[C@@H]1/C=C(/C)[C@@H](O)[C@@H](C)C[C@H](OC)[C@H]2O[C@@](O)(C(=O)C(=O)N3CCCC[C@H]3C(=O)O[C@H](/C(C)=C/[C@@H]3CC[C@@H](O)[C@H](OC)C3)[C@H](C)[C@@H](O)CC1=O)[C@H](C)C[C@@H]2OC
Request: Lower value of EC50 belongs to which: a or b ? Refer to your chosen item by its label in the answer.
Result: a

1: COc1cc(C(=O)C(=O)N2CCCCC2C(=O)OC(CCCc2ccccc2)CCc2cccnc2)cc(OC)c1OC (stereo unspecified)
2: CCC(C)CNC(=O)N1CCCCC1C(=O)OCCCc1cccnc1 (stereo unspecified)
Request: Recorded EC50 values differ for 1 and 2 ; which one is higher? Could you answer with the label of the item you picked?
Result: 1

a: CCC(C)(C)NC(=O)N1CCCC1C(=O)OCCCc1cccnc1 (stereo unspecified)
b: O=C(OC(CCCc1ccccc1)Cc1ccccc1)C1CCCCN1S(=O)(=O)Cc1ccccc1 (stereo unspecified)
Request: Decide: a or b , by lowest recorded EC50. // output: label of the selected item
Result: b
(b: 0.133 nM, a: 1 nM)

Attribution: ChEMBL document CHEMBL1131428
